Attribute: self-cleavage
B1: Twister Ribozyme (parent)
chain: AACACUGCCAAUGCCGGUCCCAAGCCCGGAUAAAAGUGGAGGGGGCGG

# Variants of: B1
# procedure details: self-cleavage, relative activity (ratio to wild type); higher = more cleavage; co-transcriptional

Take a look at these entries with their results.
>>> observed("C8G U31A")
0.472
>>> observed("C3G G41C")
0.0954
>>> observed("C15U G36U")
0.203
>>> observed("U6C A40G")
0.0788

Value lookup for self-cleavage; key = C26U U37A
0.121

Value lookup for self-cleavage; key = A33G C46G
0.855

Value lookup for self-cleavage; key = U37C G47U
0.585
